- Subject Of Test: MAP3K2 (Homo sapiens, UniProt Q9Y2U5)
- Construct: endogenous in cells
- Test: KAM-matrix competition in K562 lysate
- Stated Conditions: read-out: RB50 (the source's name)
Result Type: IC50 (nM)
One number for each entry, in nM.

Briefly, IC50 measured for N#CCc1ccc(Nc2nc(NCCCN)cc(Nc3cc(C4CC4)[nH]n3)n2)cc1 [KAM] : 1330

----------
- Subject Of Test: RIPK1 (Homo sapiens, UniProt Q13546)
- Construct: endogenous in cells
- Test: KAM-matrix competition in K562 lysate
- Stated Conditions: KAM 0.001-10 uM, read-out: RB50 (the source's name)
Result Type: IC50

Measured IC50 (RIPK1 (Homo sapiens, UniProt Q13546)), entry "N#CCc1ccc(Nc2nc(NCCCN)cc(Nc3cc(C4CC4)[nH]n3)n2)cc1" : > 10 µM

----------
- Subject Of Test: IKBKE (Homo sapiens)
- Construct: endogenous in cells
- Sequence (Q14164 whole entry): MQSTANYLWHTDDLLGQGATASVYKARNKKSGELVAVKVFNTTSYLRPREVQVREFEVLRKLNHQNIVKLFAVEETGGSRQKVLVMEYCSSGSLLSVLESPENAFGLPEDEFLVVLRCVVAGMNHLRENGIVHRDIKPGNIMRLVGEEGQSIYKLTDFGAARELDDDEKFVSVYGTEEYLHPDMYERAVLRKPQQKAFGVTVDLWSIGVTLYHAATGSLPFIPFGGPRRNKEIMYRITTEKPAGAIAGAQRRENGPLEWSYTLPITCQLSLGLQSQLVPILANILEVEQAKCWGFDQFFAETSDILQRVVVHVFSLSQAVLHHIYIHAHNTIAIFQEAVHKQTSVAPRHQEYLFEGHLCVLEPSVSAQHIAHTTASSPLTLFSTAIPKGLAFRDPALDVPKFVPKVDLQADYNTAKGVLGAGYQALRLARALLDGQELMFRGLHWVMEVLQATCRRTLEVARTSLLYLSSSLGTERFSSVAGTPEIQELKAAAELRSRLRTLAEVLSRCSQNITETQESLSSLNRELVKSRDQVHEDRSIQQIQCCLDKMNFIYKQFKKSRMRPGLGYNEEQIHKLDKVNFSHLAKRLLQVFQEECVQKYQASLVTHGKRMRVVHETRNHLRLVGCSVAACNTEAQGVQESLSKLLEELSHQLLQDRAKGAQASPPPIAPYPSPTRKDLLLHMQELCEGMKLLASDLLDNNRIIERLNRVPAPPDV
- Test: KAM-matrix competition in K562 lysate
- Stated Conditions: read-out: RB50 (the source's name)
Result Type: IC50 (nM)
One number for each entry, in nM.

The molecule identified as N#CCc1ccc(Nc2nc(NCCCN)cc(Nc3cc(C4CC4)[nH]n3)n2)cc1 [KAM] registered its IC50 at 823

----------
- Subject Of Test: SPEG (Homo sapiens, UniProt Q15772)
- Construct: endogenous in cells; host or cells: K562
- Test: Imatinib-matrix competition in K562 lysate
- Format: binding
- Stated Conditions: read-out: RB50 (the source's name)
pIC50: −log10 of the molar value.
Result Type: pIC50

Consider "Cc1ccc(NC(=O)c2ccc(CN3CCN(C)CC3)cc2)cc1Nc1nccc(-c2cccnc2)n1" . Its measured pIC50 is < 5.00

----------
- Subject Of Test: LRRK2 (Homo sapiens)
- Construct: endogenous in cells
- Test: KAM-matrix competition in K562 lysate
- Stated Conditions: KAM 0.001-10 uM, read-out: RB50 (the source's name)
Result Type: IC50

The measured IC50 that N#CCc1ccc(Nc2nc(NCCCN)cc(Nc3cc(C4CC4)[nH]n3)n2)cc1 [KAM] showed for LRRK2 (Homo sapiens) is > 10 µM

----------
- Subject Of Test: TRIM28 (Homo sapiens)
- Construct: endogenous in cells; host or cells: K562
- Test: KAM-matrix competition in K562 lysate
- Assay type: binding
- Stated Conditions: KAM 0.001-10 uM, read-out: RB50 (the source's name)
pIC50: −log10 of the molar value.
Result Type: pIC50

Hey, TRIM28 (Homo sapiens) data for N#CCc1ccc(Nc2nc(NCCCN)cc(Nc3cc(C4CC4)[nH]n3)n2)cc1 [KAM] : pIC50 came out at < 5.00

----------
- Subject Of Test: PRKDC (Homo sapiens)
- Construct: endogenous in cells; host or cells: K562
- Sequence (P78527 whole entry): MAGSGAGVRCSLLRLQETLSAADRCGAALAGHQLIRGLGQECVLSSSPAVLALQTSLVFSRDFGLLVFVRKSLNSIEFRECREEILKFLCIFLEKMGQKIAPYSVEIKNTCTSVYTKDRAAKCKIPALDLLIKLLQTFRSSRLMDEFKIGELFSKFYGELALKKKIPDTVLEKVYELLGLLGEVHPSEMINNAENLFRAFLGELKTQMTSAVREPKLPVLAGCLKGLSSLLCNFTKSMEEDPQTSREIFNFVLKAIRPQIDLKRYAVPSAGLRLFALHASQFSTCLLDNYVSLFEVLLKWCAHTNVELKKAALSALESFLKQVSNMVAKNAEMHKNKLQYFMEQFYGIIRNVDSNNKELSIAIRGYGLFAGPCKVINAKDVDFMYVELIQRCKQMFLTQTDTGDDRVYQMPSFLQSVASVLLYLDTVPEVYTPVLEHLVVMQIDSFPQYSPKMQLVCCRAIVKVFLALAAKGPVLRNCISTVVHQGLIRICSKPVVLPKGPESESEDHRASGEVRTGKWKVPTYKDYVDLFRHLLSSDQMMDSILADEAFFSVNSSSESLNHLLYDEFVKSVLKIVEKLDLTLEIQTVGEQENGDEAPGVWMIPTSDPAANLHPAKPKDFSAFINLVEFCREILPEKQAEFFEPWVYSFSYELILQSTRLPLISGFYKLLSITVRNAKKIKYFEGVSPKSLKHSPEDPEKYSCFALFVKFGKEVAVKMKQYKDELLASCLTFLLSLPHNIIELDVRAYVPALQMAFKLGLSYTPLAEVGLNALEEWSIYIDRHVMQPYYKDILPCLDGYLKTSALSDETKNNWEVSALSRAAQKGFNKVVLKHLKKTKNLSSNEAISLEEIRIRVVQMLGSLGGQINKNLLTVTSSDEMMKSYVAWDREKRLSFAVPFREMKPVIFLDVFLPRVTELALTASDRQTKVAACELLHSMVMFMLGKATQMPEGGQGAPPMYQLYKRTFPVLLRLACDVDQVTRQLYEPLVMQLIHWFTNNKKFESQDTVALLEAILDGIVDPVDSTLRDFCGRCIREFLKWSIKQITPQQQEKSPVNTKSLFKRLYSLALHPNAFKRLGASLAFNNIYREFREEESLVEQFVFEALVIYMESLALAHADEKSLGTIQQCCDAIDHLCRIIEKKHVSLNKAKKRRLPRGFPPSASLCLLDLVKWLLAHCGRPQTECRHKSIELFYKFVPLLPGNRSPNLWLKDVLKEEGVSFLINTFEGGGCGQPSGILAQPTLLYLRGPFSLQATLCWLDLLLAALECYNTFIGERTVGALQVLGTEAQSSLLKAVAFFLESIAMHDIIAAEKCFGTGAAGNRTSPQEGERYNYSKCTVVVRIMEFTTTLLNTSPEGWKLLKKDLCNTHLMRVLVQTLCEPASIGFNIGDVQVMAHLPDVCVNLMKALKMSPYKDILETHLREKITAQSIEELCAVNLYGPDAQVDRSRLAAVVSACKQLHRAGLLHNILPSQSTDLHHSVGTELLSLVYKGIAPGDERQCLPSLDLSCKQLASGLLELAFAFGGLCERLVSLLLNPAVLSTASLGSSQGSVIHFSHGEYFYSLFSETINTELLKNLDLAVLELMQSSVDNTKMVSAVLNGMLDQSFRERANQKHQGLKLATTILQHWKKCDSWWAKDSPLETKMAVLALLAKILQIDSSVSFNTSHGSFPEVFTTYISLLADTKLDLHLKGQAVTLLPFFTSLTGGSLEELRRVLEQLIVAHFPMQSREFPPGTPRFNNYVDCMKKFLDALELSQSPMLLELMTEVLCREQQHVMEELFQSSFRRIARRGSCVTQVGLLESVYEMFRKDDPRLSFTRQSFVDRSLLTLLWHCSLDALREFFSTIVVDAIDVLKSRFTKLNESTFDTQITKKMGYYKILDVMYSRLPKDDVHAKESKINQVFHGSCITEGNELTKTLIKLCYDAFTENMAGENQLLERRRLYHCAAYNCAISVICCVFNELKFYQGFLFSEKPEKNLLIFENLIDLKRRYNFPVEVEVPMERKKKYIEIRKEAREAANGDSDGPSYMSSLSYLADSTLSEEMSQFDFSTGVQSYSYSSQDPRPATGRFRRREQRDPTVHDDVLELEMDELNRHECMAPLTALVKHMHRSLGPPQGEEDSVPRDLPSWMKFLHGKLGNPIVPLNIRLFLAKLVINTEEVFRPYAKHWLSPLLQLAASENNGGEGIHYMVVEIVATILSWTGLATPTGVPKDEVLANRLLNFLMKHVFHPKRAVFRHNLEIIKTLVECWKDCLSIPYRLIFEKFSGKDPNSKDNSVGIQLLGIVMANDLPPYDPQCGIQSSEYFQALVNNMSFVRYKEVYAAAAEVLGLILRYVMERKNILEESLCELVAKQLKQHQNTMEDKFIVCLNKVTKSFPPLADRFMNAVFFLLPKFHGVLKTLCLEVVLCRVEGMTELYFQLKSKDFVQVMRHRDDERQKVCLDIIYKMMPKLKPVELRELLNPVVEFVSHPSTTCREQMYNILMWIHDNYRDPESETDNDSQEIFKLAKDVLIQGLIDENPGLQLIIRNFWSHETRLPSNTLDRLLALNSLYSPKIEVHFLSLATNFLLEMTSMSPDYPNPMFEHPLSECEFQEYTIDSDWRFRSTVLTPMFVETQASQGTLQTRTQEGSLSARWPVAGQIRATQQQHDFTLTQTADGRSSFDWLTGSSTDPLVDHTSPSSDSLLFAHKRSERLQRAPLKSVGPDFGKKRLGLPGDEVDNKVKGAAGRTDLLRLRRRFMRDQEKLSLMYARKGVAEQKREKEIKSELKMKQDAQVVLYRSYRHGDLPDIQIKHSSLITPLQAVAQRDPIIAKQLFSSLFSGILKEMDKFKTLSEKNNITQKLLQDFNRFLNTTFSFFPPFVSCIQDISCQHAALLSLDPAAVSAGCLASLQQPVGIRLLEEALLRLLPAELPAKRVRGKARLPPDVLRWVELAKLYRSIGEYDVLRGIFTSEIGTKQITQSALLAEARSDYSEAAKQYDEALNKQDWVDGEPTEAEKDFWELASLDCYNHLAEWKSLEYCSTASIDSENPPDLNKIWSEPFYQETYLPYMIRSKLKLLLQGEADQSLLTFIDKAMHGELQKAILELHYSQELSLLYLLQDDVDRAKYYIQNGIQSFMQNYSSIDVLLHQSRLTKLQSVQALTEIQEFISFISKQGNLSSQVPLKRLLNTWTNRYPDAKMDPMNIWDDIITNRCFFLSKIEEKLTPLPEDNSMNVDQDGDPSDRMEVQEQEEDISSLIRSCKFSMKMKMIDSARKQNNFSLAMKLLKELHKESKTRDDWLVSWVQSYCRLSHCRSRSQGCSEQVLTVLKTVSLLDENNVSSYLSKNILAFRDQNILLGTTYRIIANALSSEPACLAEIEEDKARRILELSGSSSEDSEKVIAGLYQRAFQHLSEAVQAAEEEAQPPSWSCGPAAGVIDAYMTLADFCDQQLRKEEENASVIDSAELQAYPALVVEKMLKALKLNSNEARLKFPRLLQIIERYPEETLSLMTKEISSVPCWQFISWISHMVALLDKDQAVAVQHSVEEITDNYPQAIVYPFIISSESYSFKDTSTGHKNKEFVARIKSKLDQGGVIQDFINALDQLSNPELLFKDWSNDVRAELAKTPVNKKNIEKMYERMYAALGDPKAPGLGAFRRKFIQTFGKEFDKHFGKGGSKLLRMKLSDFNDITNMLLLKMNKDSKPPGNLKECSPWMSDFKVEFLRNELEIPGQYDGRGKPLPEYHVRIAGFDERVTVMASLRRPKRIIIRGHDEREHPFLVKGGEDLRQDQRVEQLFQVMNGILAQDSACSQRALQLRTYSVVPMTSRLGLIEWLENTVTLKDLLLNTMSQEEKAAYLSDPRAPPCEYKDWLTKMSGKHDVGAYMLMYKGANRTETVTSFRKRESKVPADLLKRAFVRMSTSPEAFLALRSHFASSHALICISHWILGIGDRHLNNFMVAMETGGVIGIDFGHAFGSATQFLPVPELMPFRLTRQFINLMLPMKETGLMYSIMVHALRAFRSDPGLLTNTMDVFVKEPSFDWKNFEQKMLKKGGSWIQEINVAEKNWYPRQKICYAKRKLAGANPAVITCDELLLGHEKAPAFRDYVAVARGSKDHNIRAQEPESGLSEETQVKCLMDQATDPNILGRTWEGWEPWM
- Test: Imatinib-matrix competition in K562 lysate
- Type: binding
- Stated Conditions: read-out: RB50 (the source's name)
Result Type: IC50

Here "Cc1ccc(NC(=O)c2ccc(CN3CCN(C)CC3)cc2)cc1Nc1nccc(-c2cccnc2)n1" was tested on PRKDC (Homo sapiens), and its IC50 came to > 10 µM

----------
- Subject Of Test: FYN (Homo sapiens, UniProt P06241)
- Construct: endogenous in cells
- Test: KAM-matrix competition in K562 lysate
- Stated Conditions: read-out: RB50 (the source's name)
Result Type: IC50 (nM)
Numbers only, in nM.

Value of IC50 reported for the compound "N#CCc1ccc(Nc2nc(NCCCN)cc(Nc3cc(C4CC4)[nH]n3)n2)cc1" is 754
